- assay_method_text: Apparent oral clearance in human at 175 mg, po administered for 8 days by LC-MS/MS analysis
- Format: ADME, organism-based
- assay_context: in vivo, time 8 day

{"columns": ["sample_smiles", "CL/F"],
 "data": [
  ["CC#CC(=O)N1CCC[C@H]1c1nc(-c2ccc(C(=O)Nc3ccccn3)cc2)c2c(N)nccn12", "3550 mL/min"]
]}

* * *

- assay_method_text: Tmax in human at 100 mg, po BID administered for 8 days by LC-MS/MS analysis
- Assay type: ADME, organism-based
- assay_context: in vivo, time 8 day

{"columns": ["compound", "Tmax [h]"],
 "data": [
  ["CC#CC(=O)N1CCC[C@H]1c1nc(-c2ccc(C(=O)Nc3ccccn3)cc2)c2c(N)nccn12 [ACALABRUTINIB]", 1]
]}

* * *

- assay_method_text: Tmax in human at 400 mg, po administered for 8 days by LC-MS/MS analysis
- Format: ADME, organism-based
- assay_context: in vivo, time 8 day

{"columns": ["sample_smiles", "output_unit", "Tmax"],
 "data": [
  ["CC#CC(=O)N1CCC[C@H]1c1nc(-c2ccc(C(=O)Nc3ccccn3)cc2)c2c(N)nccn12", "min", 55.2]
]}

* * *

- system: Tyrosine-protein kinase Yes (Homo sapiens)
- Sequence (P07947 whole entry): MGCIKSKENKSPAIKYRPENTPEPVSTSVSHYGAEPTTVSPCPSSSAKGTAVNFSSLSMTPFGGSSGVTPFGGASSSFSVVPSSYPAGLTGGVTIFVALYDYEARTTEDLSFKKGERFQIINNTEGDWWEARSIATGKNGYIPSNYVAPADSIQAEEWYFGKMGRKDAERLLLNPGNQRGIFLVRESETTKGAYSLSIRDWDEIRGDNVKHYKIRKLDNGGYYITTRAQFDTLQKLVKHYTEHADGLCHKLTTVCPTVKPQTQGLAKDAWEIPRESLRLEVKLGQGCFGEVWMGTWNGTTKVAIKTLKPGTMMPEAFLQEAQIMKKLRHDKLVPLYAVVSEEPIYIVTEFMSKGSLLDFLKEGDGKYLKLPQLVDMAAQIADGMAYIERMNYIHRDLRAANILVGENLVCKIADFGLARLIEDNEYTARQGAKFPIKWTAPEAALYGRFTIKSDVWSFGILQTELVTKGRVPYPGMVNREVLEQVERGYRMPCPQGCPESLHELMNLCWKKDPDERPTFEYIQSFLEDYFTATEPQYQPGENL
- assay_method_text: Inhibition of recombinant YES1 (unknown origin) […] by Z-Lyte assay
pIC50: −log10 of the molar value.

{"columns": ["sample_smiles", "system", "pIC50"],
 "data": [
  ["CC#CC(=O)N1CCC[C@H]1c1nc(-c2ccc(C(=O)Nc3ccccn3)cc2)c2c(N)nccn12", "Tyrosine-protein kinase Yes (Homo sapiens)", "< 6.00"]
]}

* * *

- system: UniProt P12931
- Sequence (P12931 2-536 limits assumed): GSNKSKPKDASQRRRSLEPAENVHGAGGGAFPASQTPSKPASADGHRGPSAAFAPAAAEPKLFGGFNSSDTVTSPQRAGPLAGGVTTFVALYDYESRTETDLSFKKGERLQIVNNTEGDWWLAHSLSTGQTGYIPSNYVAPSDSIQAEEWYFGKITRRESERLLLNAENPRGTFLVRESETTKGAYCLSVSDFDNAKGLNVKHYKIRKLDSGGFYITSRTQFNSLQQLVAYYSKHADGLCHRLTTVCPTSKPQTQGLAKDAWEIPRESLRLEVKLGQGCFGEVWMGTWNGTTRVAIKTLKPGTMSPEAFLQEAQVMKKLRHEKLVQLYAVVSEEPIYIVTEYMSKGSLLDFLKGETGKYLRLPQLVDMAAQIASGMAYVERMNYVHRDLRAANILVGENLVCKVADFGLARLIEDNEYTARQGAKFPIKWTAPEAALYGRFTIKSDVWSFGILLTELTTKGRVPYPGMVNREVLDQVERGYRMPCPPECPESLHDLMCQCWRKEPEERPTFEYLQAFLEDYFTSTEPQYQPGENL
- assay_method_text: Inhibition of recombinant SRC (unknown origin) preincubated for 1 hr in presence of ATP by Z-Lyte assay
pIC50: −log10 of the molar value.
reported_endpoint: pIC50

{"columns": ["sample_smiles", "reported_endpoint", "reported_measurement"],
 "data": [
  ["CC#CC(=O)N1CCC[C@H]1c1nc(-c2ccc(C(=O)Nc3ccccn3)cc2)c2c(N)nccn12", "pIC50", "< 6.00"]
]}

* * *

- assay_method_text: Terminal elimination half life in human at 100 mg, po BID administered for 8 days by LC-MS/MS analysis
- Format: ADME, organism-based
- assay_context: in vivo, time 8 day, read-out: LambdaZ (converted)

{"columns": ["molecule", "k el at 192 h, s⁻¹"],
 "data": [
  ["CC#CC(=O)N1CCC[C@H]1c1nc(-c2ccc(C(=O)Nc3ccccn3)cc2)c2c(N)nccn12 [ACALABRUTINIB]", 0.000188]
]}

* * *

- assay_method_text: AUC(0 to 6 hrs) in human at 400 mg, po administered for 8 days by LC-MS/MS analysis
- Type: ADME, organism-based
- assay_context: in vivo, time 8 day

{"columns": ["sample_smiles", "output_unit", "AUC at 192 h"],
 "data": [
  ["CC#CC(=O)N1CCC[C@H]1c1nc(-c2ccc(C(=O)Nc3ccccn3)cc2)c2c(N)nccn12", "ng·h/mL", 1730]
]}

* * *

- assay_method_text: Half life in human at 250 mg, po administered for 8 days by LC-MS/MS analysis
- Type: ADME, organism-based
- assay_context: in vivo, time 8 day
reported_endpoint: half-life (min)

{"columns": ["compound", "reported_endpoint", "reported_measurement"],
 "data": [
  ["CC#CC(=O)N1CCC[C@H]1c1nc(-c2ccc(C(=O)Nc3ccccn3)cc2)c2c(N)nccn12 [ACALABRUTINIB]", "half-life", 56.5]
]}
